Entries annotated with measured Emax (%)
Biological target: T1, human MIC-1 receptor (hGFRAL, GDNF family receptor alpha like), full length (human, UniProt Q6UXV0 19-394)
T1 sequence (looked up): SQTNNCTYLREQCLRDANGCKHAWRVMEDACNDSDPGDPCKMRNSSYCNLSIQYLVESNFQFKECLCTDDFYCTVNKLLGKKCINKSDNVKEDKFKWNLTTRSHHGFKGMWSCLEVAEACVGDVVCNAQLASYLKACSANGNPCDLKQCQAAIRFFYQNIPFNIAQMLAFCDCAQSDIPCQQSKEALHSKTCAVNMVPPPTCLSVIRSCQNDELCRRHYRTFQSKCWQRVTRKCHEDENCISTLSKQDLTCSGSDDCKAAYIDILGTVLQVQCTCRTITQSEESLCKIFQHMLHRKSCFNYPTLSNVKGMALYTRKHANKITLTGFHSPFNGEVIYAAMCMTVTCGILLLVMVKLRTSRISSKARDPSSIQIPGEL
Assay: cell-based or functional assay
Lab book: enter the figure in %, no units written.

>  <BINDER>
AEEAES-MIC-1-Δ1-3 (ligand) AEEAESGDHCPLGPGRCCRLHTVRASLEDLGWADWVLSPREVQVTMCIGACPSQFRAANMHAQIKTSLHRLKPDTVPAPCCVPASYNPMVLIQKTDTGVSLQTYDDLLAKDCHCI

>  <Emax (%)>
100

$$$$

Now, please, on to the next binder.
### Prompt Dear colleague, I am looking for the recorded Emax (%) of the following binder: (AEE)5AES-MIC-1-Δ1-3 (ligand) AEEAEEAEEAEEAEEAESGDHCPLGPGRCCRLHTVRASLEDLGWADWVLSPREVQVTMCIGACPSQFRAANMHAQIKTSLHRLKPDTVPAPCCVPASYNPMVLIQKTDTGVSLQTYDDLLAKDCHCI
### Response 100
